molecular target: PDGF-Ra (Homo sapiens); construct: host or cells: G-292 human osteosarcoma cells; assay: Inhibitory activity against PDGF-Ra phosphorylation by PDGF-AA stimulation using G292; format: cell-based; conditions: > means inhibition at indicated concentration not more than 50%, < and << not less than 50%; read-out: PDGF (E) IC50
Sequence (P16234 24-1089): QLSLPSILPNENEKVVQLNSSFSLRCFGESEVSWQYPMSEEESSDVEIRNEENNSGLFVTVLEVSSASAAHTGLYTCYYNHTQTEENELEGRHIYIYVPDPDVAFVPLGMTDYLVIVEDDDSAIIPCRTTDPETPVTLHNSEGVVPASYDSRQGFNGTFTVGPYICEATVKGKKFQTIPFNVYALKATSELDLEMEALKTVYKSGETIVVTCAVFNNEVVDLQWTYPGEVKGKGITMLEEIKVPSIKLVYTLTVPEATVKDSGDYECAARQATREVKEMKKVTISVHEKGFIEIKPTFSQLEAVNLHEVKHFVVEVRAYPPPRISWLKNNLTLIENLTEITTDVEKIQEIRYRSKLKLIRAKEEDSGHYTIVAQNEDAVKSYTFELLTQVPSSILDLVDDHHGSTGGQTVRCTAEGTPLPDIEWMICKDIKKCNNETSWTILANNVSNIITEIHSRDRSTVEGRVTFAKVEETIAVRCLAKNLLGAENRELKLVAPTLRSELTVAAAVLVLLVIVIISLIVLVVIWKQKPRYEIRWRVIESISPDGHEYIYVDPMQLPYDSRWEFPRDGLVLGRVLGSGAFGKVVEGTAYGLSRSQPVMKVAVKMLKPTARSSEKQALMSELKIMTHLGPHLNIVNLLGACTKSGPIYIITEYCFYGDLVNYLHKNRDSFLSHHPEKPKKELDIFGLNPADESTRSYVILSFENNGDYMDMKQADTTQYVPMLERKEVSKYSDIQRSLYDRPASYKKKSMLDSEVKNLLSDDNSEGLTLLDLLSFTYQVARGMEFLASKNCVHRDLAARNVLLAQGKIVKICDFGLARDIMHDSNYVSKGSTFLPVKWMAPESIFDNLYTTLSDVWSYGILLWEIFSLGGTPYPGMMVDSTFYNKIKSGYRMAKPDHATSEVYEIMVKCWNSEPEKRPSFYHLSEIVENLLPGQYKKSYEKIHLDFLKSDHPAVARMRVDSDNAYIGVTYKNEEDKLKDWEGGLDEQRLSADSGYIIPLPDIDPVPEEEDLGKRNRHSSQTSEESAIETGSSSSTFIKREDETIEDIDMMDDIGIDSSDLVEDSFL
Test Readout: IC50

Request: Given COc1cc2nccc(Oc3ccc(NC(=S)NC(=O)C(C)(C)Oc4ccc(Cl)cc4)cc3Cl)c2cc1OC [Example 758] , state its recorded IC50.
Response: > 100 nM

Request: And for COc1cc2nccc(Oc3ccc(NC(=O)NC4CCN(Cc5ccc(C(C)(C)C)cc5)C4)cc3)c2cc1OC (stereo not drawn) [Example 582] ?
Response: > 100 nM

Request: And for COc1cc2nccc(Oc3ccc(NC(=S)NC(=O)COCc4ccccc4)cc3F)c2cc1OC [Example 1032] ?
Response: < 10 nM

Request: And for COc1cc2ncnc(Oc3ccc(NC(=S)NC(=O)C4(C)CCCCC4)cc3)c2cc1OC [Example 1193] ?
Response: < 10 nM

Request: And for COc1cc2ncnc(Oc3ccc(NC(=S)NC(=O)CCCCCl)cc3)c2cc1OC [Example 1170] ?
Response: < 10 nM

Request: And for COc1cc2ncnc(Oc3ccc(NC(=S)NC(=O)C4CCCCC4)cc3)c2cc1OC [Example 1180] ?
Response: < 10 nM

All figures here come from patent US7135466B2.
